Parameter pKd: see the listing below.
Biological target: T1, canine PD-1 (canine)
T1 construct: Expressed full length on transiently transfected 293FS cells; also called full length canine PD-1
T1 chain: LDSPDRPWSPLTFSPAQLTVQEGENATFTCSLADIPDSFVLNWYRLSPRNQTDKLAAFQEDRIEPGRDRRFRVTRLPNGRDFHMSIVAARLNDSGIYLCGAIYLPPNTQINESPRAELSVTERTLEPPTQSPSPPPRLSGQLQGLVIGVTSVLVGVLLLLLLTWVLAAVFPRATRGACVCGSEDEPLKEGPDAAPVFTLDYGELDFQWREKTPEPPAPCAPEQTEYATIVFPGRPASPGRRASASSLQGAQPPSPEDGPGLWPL
Assay: flow cytometry on 293FS cells transiently expressing full length canine PD-1
Method: Binding of the sdAbs to canine PD-1 was determined as follows. Transiently transfected 293FS cells that express full length canine PD-1 and untransfected 293FS cells were plated at 50,000 cells/well in separate wells. Antibodies were titrated serially diluted 1:3 starting at 400 nM, and detected with anti-canine Fc 647 secondary antibody. Flow cytometric analysis was performed on an Intellicyte iQue analyzer and fluorescence was plotted as median fluorescence intensity.
For clarity, pKd is expressed as the negative log10 of concentration in mol/L.

Binder | Number
czPD1-14v1-Fc xEML-DANA (Fc fusion) EVQLVESGGGEVKPGGSLRLSCVASGRTVSIYAMGWFRQAPGKEREFVAGIGWSGGTTYYADAVKGRFTISRDNAKNTVYLQMSSLRAEDTAVYYCAAQESAAGTLGDYWGQGTQVTVKPGGGGENGRVPRPPDCPKCPAPGGPSVFIFPPKPKDTLLIARTPEVTCVVVALDPEDPEVQISWFVDGKQMQTAKTQPREEQFAGTYRVVSVLPIGHQDWLKGKQFTCKVNNKALPSPIERTISKARGQAHQPSVYVLPPSREELSKNTVSLTCLIKDFFPPDIDVEWQSNGQQEPESKYRTTPPQLDEDGSYFLYSKLSVDKSRWQRGDTFICAVMHEALHNHYTQKSLSHSPGK | 8.38

Query: Report pKd for czPD1-14v2-Fc xEML-DANA (Fc fusion, Dimer formation is stated only in embodiment language) EVQLVESGGGEVKPGGSLRLSCVASGRTVSIYAMGWFRQAPGKEREFVAGIGWNGGTTYYADAVKGRFTISRDNAKNTVYLQMSSLRAEDTAVYYCAAQESAAGTLGDYWGQGTQVTVKPGGGGENGRVPRPPDCPKCPAPGGPSVFIFPPKPKDTLLIARTPEVTCVVVALDPEDPEVQISWFVDGKQMQTAKTQPREEQFAGTYRVVSVLPIGHQDWLKGKQFTCKVNNKALPSPIERTISKARGQAHQPSVYVLPPSREELSKNTVSLTCLIKDFFPPDIDVEWQSNGQQEPESKYRTTPPQLDEDGSYFLYSKLSVDKSRWQRGDTFICAVMHEALHNHYTQKSLSHSPGK please.
Response: 8.18
